Field: growth at 0.01 µM. Provide a value for each of the compounds that follow.
- System: U-251
- Test Protocol: Growth inhibition of human U251 cells assessed as cell growth at 10^-8 M incubated for 48 hrs by sulforhodamine B assay
- Format: functional
- Test Parameters: U-251, 48 h, read-out: Activity
Reply numerically in %, unit not repeated.

Any idea what growth at 0.01 µM was measured for c1ccc2[nH]c(-c3ccc(Nc4nc(N5CCCCC5)nc(N5CCOCC5)n4)cc3)nc2c1 ? 99

Any idea what growth at 0.01 µM was measured for Fc1ccc(-c2nc(Nc3ccc(-c4nc5ccccc5[nH]4)cc3)nc(N3CCOCC3)n2)cc1 ? 101

Any idea what growth at 0.01 µM was measured for c1ccc(-c2nc(Nc3ccc(-c4nc5ccccc5[nH]4)cc3)nc(N3CCOCC3)n2)cc1 ? 105

Any idea what growth at 0.01 µM was measured for Clc1ccc(-c2nc(Nc3ccc(-c4nc5ccccc5[nH]4)cc3)nc(N3CCOCC3)n2)cc1 ? 99

* * *

- Test Protocol: Growth inhibition of human SF295 cells assessed as cell growth at 10 uM incubated for 48 hrs by sulforhodamine B assay
- Type: functional
- Test Parameters: SF-295, 48 h, read-out: Activity
Field: growth at 10 µM. Provide a value for each of the molecules that follow.
Reply numerically in %, unit not repeated.

Any idea what growth at 10 µM was measured for Clc1ccc(-c2nc(Nc3ccc(-c4nc5ccccc5[nH]4)cc3)nc(N3CCOCC3)n2)cc1 ? -94.4

Any idea what growth at 10 µM was measured for c1ccc(-c2nc(Nc3ccc(-c4nc5ccccc5[nH]4)cc3)nc(N3CCOCC3)n2)cc1 ? -76.4

Any idea what growth at 10 µM was measured for c1ccc2[nH]c(-c3ccc(Nc4nc(N5CCCCC5)nc(N5CCOCC5)n4)cc3)nc2c1 ? -51.4

Any idea what growth at 10 µM was measured for Fc1ccc(-c2nc(Nc3ccc(-c4nc5ccccc5[nH]4)cc3)nc(N3CCOCC3)n2)cc1 ? -63.5

* * *

Field: growth at 10 µM. Provide a value for each of the molecules that follow.
- Test Protocol: Growth inhibition of human UACC62 cells assessed as cell growth at 10^-5 M incubated for 48 hrs by sulforhodamine B assay
- Format: functional
- Test Parameters: UACC-62, 48 h, read-out: Activity
Reply numerically in %, unit not repeated.

Any idea what growth at 10 µM was measured for c1ccc(-c2nc(Nc3ccc(-c4nc5ccccc5[nH]4)cc3)nc(N3CCOCC3)n2)cc1 ? -71

Any idea what growth at 10 µM was measured for Fc1ccc(-c2nc(Nc3ccc(-c4nc5ccccc5[nH]4)cc3)nc(N3CCOCC3)n2)cc1 ? -70

Any idea what growth at 10 µM was measured for Clc1ccc(-c2nc(Nc3ccc(-c4nc5ccccc5[nH]4)cc3)nc(N3CCOCC3)n2)cc1 ? -77

Any idea what growth at 10 µM was measured for c1ccc2[nH]c(-c3ccc(Nc4nc(N5CCCCC5)nc(N5CCOCC5)n4)cc3)nc2c1 ? -53

* * *

- Test Protocol: Growth inhibition of human MOLT4 cells assessed as cell growth at 10 uM incubated for 48 hrs by sulforhodamine B assay
- Type: functional
- Test Parameters: MOLT-4, 48 h, read-out: Activity
Metric Name: growth at 10 µM (%)
Reply numerically in %, unit not repeated.

Any idea what growth at 10 µM was measured for Fc1ccc(-c2nc(Nc3ccc(-c4nc5ccccc5[nH]4)cc3)nc(N3CCOCC3)n2)cc1 ? 1.78

Any idea what growth at 10 µM was measured for c1ccc2[nH]c(-c3ccc(Nc4nc(N5CCCCC5)nc(N5CCOCC5)n4)cc3)nc2c1 ? 13.7

Any idea what growth at 10 µM was measured for c1ccc(-c2nc(Nc3ccc(-c4nc5ccccc5[nH]4)cc3)nc(N3CCOCC3)n2)cc1 ? -37.8

Any idea what growth at 10 µM was measured for Clc1ccc(-c2nc(Nc3ccc(-c4nc5ccccc5[nH]4)cc3)nc(N3CCOCC3)n2)cc1 ? -91.6

* * *

- Test Protocol: Growth inhibition of human RXF393 cells assessed as cell growth at 10^-8 M incubated for 48 hrs by sulforhodamine B assay
- Assay type: functional
- Test Parameters: RXF 393, 48 h, read-out: Activity
Metric Name: growth at 0.01 µM (%)
Reply numerically in %, unit not repeated.

Any idea what growth at 0.01 µM was measured for Fc1ccc(-c2nc(Nc3ccc(-c4nc5ccccc5[nH]4)cc3)nc(N3CCOCC3)n2)cc1 ? 102

Any idea what growth at 0.01 µM was measured for c1ccc2[nH]c(-c3ccc(Nc4nc(N5CCCCC5)nc(N5CCOCC5)n4)cc3)nc2c1 ? 96

Any idea what growth at 0.01 µM was measured for c1ccc(-c2nc(Nc3ccc(-c4nc5ccccc5[nH]4)cc3)nc(N3CCOCC3)n2)cc1 ? 97

Any idea what growth at 0.01 µM was measured for Clc1ccc(-c2nc(Nc3ccc(-c4nc5ccccc5[nH]4)cc3)nc(N3CCOCC3)n2)cc1 ? 100

* * *

- Tested on: HT-29
- Test Protocol: Growth inhibition of human HT-29 cells assessed as cell growth at 10^-5 M incubated for 48 hrs by sulforhodamine B assay
- Type: functional
- Test Parameters: HT-29, 48 h, read-out: Activity
Metric Name: growth at 10 µM (%)
Reply numerically in %, unit not repeated.

Tell me reported growth at 10 µM for Fc1ccc(-c2nc(Nc3ccc(-c4nc5ccccc5[nH]4)cc3)nc(N3CCOCC3)n2)cc1 , tested with HT-29. -35

Tell me reported growth at 10 µM for c1ccc2[nH]c(-c3ccc(Nc4nc(N5CCCCC5)nc(N5CCOCC5)n4)cc3)nc2c1 , tested with HT-29. -36

Tell me reported growth at 10 µM for c1ccc(-c2nc(Nc3ccc(-c4nc5ccccc5[nH]4)cc3)nc(N3CCOCC3)n2)cc1 , tested with HT-29. -70

Tell me reported growth at 10 µM for Clc1ccc(-c2nc(Nc3ccc(-c4nc5ccccc5[nH]4)cc3)nc(N3CCOCC3)n2)cc1 , tested with HT-29. -74

* * *

Field: growth at 0.1 µM. Provide a value for each of the compounds that follow.
- Tested on: NCI-H226
- Test Protocol: Growth inhibition of human NCI-H226 cells assessed as cell growth at 10^-7 M incubated for 48 hrs by sulforhodamine B assay
- Assay type: functional
- Test Parameters: NCI-H226, 48 h, read-out: Activity
Reply numerically in %, unit not repeated.

Tell me reported growth at 0.1 µM for c1ccc(-c2nc(Nc3ccc(-c4nc5ccccc5[nH]4)cc3)nc(N3CCOCC3)n2)cc1 , tested with NCI-H226. 120

Tell me reported growth at 0.1 µM for c1ccc2[nH]c(-c3ccc(Nc4nc(N5CCCCC5)nc(N5CCOCC5)n4)cc3)nc2c1 , tested with NCI-H226. 84

Tell me reported growth at 0.1 µM for Fc1ccc(-c2nc(Nc3ccc(-c4nc5ccccc5[nH]4)cc3)nc(N3CCOCC3)n2)cc1 , tested with NCI-H226. 111

Tell me reported growth at 0.1 µM for Clc1ccc(-c2nc(Nc3ccc(-c4nc5ccccc5[nH]4)cc3)nc(N3CCOCC3)n2)cc1 , tested with NCI-H226. 106

* * *

- Test Protocol: Growth inhibition of human SNB75 cells incubated for 48 hrs by sulforhodamine B assay
- Format: functional
- Test Parameters: SNB-75, 48 h, read-out: pTGI (converted)
Metric Name: TGI

Any idea what TGI was measured for Clc1ccc(-c2nc(Nc3ccc(-c4nc5ccccc5[nH]4)cc3)nc(N3CCOCC3)n2)cc1 ? 3.24 µM

Any idea what TGI was measured for Fc1ccc(-c2nc(Nc3ccc(-c4nc5ccccc5[nH]4)cc3)nc(N3CCOCC3)n2)cc1 ? 10.5 µM

Any idea what TGI was measured for c1ccc2[nH]c(-c3ccc(Nc4nc(N5CCCCC5)nc(N5CCOCC5)n4)cc3)nc2c1 ? 17 µM

Any idea what TGI was measured for c1ccc(-c2nc(Nc3ccc(-c4nc5ccccc5[nH]4)cc3)nc(N3CCOCC3)n2)cc1 ? 3.16 µM

* * *

- Test Protocol: Growth inhibition of human OVCAR4 cells assessed as cell growth at 10 uM incubated for 48 hrs by sulforhodamine B assay
- Assay type: functional
- Test Parameters: OVCAR-4, 48 h, read-out: Activity
Metric Name: growth at 10 µM (%)
Reply numerically in %, unit not repeated.

Any idea what growth at 10 µM was measured for c1ccc(-c2nc(Nc3ccc(-c4nc5ccccc5[nH]4)cc3)nc(N3CCOCC3)n2)cc1 ? -47.2

Any idea what growth at 10 µM was measured for Fc1ccc(-c2nc(Nc3ccc(-c4nc5ccccc5[nH]4)cc3)nc(N3CCOCC3)n2)cc1 ? 59.8

Any idea what growth at 10 µM was measured for Clc1ccc(-c2nc(Nc3ccc(-c4nc5ccccc5[nH]4)cc3)nc(N3CCOCC3)n2)cc1 ? -73.9

Any idea what growth at 10 µM was measured for c1ccc2[nH]c(-c3ccc(Nc4nc(N5CCCCC5)nc(N5CCOCC5)n4)cc3)nc2c1 ? 61.2
